Tested system: UniProt P09650
Sequence (P09650 21-260): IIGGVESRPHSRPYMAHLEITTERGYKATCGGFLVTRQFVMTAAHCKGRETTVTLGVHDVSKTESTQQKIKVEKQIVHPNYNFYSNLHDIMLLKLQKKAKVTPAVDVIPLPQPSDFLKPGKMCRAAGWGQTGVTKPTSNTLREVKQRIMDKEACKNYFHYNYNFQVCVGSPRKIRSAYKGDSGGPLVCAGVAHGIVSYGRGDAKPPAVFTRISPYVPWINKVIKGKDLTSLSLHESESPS
pIC50: −log10 of the molar value.
Property measured: pIC50

NCCc1c[nH]c2ccc(O)cc12; 2.52
